molecular target: HCV polymerase (Hepatitis C virus genotype 1b, UniProt Q9WMX2); construct: (His)6 (C); experiment: biochemical; settings: polymerase assay of Biological Example 1; read-out: NS5B polymerase IC50
MEASUREMENT_NAME: IC50 (nM)

- CCc1ccc(-c2oc3nc(N(CCCC(C)(C)C(=O)O)S(C)(=O)=O)c(C4CC4)cc3c2C(=O)NC)cc1: 1

P. CCc1cc2c(C(=O)NC)c(-c3ccc(F)cc3)oc2nc1N(CCCCC1=C(O)CCC1=O)S(C)(=O)=O
Q. CNC(=O)c1c(-c2ccc(F)cc2)oc2nc(N(CCCC(=O)OC)S(C)(=O)=O)c(I)cc12
Input line: Problem: Given the entries P and Q , determine which has the lower reported IC50. Kindly state the label of the option you pick.
Output line: P

a. CNC(=O)c1c(-c2ccc(C)cc2)oc2nc(N(CCCCCCCCC(=O)O)S(C)(=O)=O)c(C3CC3)cc12
b. CNC(=O)c1c(-c2ccc(F)cc2)oc2nc(N(CCC3CCS(=O)(=O)C3)S(C)(=O)=O)c(C3CC3)cc12 (centres unmarked)
c. CNC(=O)c1c(-c2ccc(C)cc2)oc2nc(N(CCCC(CC(=O)O)OCCOC)S(C)(=O)=O)c(C3CC3)cc12 (centres unmarked)
Input line: # desc sort on IC50 across 3 molecules Enter labels, ranked according to the request.
Output line: c, a, b

----------
target: HCV polymerase (Hepatitis C virus genotype 1b); construct: (His)6 (C); experiment: biochemical; settings: polymerase assay of Biological Example 1; read-out: NS5B polymerase IC50
MEASUREMENT_NAME: IC50 (µM)

Consider the reported IC50 for these molecules:
• CNC(=O)c1c(-c2ccc(F)cc2)oc2nc3c(cc12)C(C)CCCCN3S(C)(=O)=O (centres unmarked) [Example 36.3] = 0.07
• C=CCCN(c1nc2oc(-c3ccc(F)cc3)c(C(=O)NC)c2cc1I)S(C)(=O)=O [Example 18.3] = 0.103
• CNC(=O)c1c(-c2ccc(F)cc2)oc2nc(N(CCCC(=O)NS(C)(=O)=O)S(C)(=O)=O)c(I)cc12 [Example 18.96] = 0.034
• CNC(=O)c1c(-c2ccc(Cl)cc2)oc2nc(N(CCCC3CCCS3(=O)=O)S(C)(=O)=O)c(I)cc12 (centres unmarked) [Example 18.98] = 0.004
• CNC(=O)c1c(-c2ccc(F)cc2)oc2nc3c(cc12)CCCCCCN3S(C)(=O)=O [Example 36.4] = 0.005
• CNC(=O)c1c(-c2ccc(F)cc2)oc2nc3c(cc12)[C@H](C)C[C@H](O)CN3S(C)(=O)=O (single isomer, unassigned) [Example 33] = 0.17
• C=CCc1cc2c(C(=O)NC)c(-c3ccc(F)cc3)oc2nc1N(C)S(C)(=O)=O [Example 4.2] = 0.128
• CNC(=O)c1c(-c2ccc(C)cc2)oc2nc(N(CCCC3CCCC3C(=O)O)S(C)(=O)=O)c(I)cc12 (centres unmarked) [Example 18.9991] = 0.005
• CNC(=O)c1c(-c2ccc(C)cc2)oc2nc(N(CC(O)CCC(=O)O)S(C)(=O)=O)c(C3CC3)cc12 (centres unmarked) [Example 29.995] = 0.013
• CCc1cc2c(C(=O)NC)c(-c3ccc(F)cc3)oc2nc1N(CCCS(=O)(=O)N1CCOCC1)S(C)(=O)=O [Example 21.98] = 0.037

1. CCc1cc2c(C(=O)NC)c(-c3ccc(F)cc3)oc2nc1N(CCCCOc1ccccc1OC)S(C)(=O)=O [Example 22.1]
2. CNC(=O)c1c(-c2ccc(C)cc2)oc2nc(N(CCCCO)S(C)(=O)=O)c(C3CC3)cc12 [Example 23.99994]
3. CCc1cc2c(C(=O)NC)c(-c3ccc(F)cc3)oc2nc1N(CCCC(C)(C)C(=O)OCC(C)C)S(C)(=O)=O [Example 21.3]
Input line: # desc sort on IC50 across 3 molecules Enter labels, ranked according to the request.
Output line: 3, 1, 2

----------
target: HCV polymerase (Hepatitis C virus genotype 1b); construct: (His)6 (C); experiment: biochemical; details: polymerase assay of Biological Example 1; read-out: NS5B polymerase IC50
MEASUREMENT_NAME: IC50 (nM)

- CCc1cc2c(C(=O)NC)c(-c3ccc(F)cc3)oc2nc1N(CCCN(C)S(C)(=O)=O)S(C)(=O)=O: 58
- CNC(=O)c1c(-c2ccc(F)cc2)oc2nc(N(C)S(C)(=O)=O)c(CCCCS(=O)(=O)CCC(=O)O)cc12: 10
- CNC(=O)c1c(-c2ccc(C)cc2)oc2nc(N(CCCCS(C)(=O)=O)S(C)(=O)=O)c(I)cc12: 4
- CCc1cc2c(C(=O)NC)c(-c3ccc(F)cc3)oc2nc1N(CCCS(C)(=O)=O)S(C)(=O)=O: 65
- CNC(=O)c1c(-c2ccc(F)cc2)oc2nc(N(CCCCCS(C)(=O)=O)S(C)(=O)=O)c(C3CC3)cc12: 4

1. CNC(=O)c1c(-c2ccc(Oc3ccccc3F)cc2)oc2nc(N(CCCCC(=O)O)S(C)(=O)=O)c(C3CC3)cc12
2. CCc1cc2c(C(=O)NC)c(-c3ccc(F)cc3)oc2nc1N(CCCS(=O)(=O)N1CCCC1)S(C)(=O)=O
3. CNC(=O)c1c(-c2ccc(F)cc2)oc2nc(N(C)S(C)(=O)=O)c(C(C)O)cc12 (centres unmarked)
Input line: Which order do these items take when sorted by rising IC50? List them. Enter labels, ranked according to the request.
Output line: 1, 2, 3
(1: 23 nM, 2: 34 nM, 3: 825 nM)

----------
target: HCV polymerase (Hepatitis C virus genotype 1b, UniProt Q9WMX2); construct: (His)6 (C); test: biochemical; details: polymerase assay of Biological Example 1; read-out: NS5B polymerase IC50
MEASUREMENT_NAME: IC50 (µM)

Consider the reported IC50 for these compounds:
* CNC(=O)c1c(-c2ccc(C)cc2)oc2nc(N(CCC3CCCC3C(=O)O)S(C)(=O)=O)c(I)cc12 (centres unmarked) | 0.004
* CNC(=O)c1c(-c2ccc(F)cc2)oc2nc(N(C)S(C)(=O)=O)c(CCCCC(N)=O)cc12 | 0.016
* CCc1cc2c(C(=O)NC)c(-c3ccc(F)cc3)oc2nc1N(CCC[S+](C)[O-])S(C)(=O)=O (centres unmarked) | 0.079
* CNC(=O)c1c(-c2ccc(F)cc2)oc2nc(N(C)S(C)(=O)=O)c(CCCCC(=O)O)cc12 | 0.049
* CNC(=O)c1c(-c2ccc(F)cc2)oc2nc(N(CCCN3CCNC3=O)S(C)(=O)=O)c(I)cc12 | 0.133

1. C=C(C)c1cc2c(C(=O)NC)c(-c3ccc(F)cc3)oc2nc1N(C)S(C)(=O)=O
2. CNC(=O)c1c(-c2ccc(F)cc2)oc2nc(N(C)S(C)(=O)=O)c(/C=C/C#N)cc12
Input line: Choose between 1 and 2 : whose measured IC50 value is numerically larger? Kindly state the label of the option you pick.
Output line: 2
(2: 0.273 µM, 1: 0.132 µM)

A. CNC(=O)c1c(-c2ccc(F)cc2)oc2nc(N(C)S(C)(=O)=O)c(CCCC(=O)N3CCC[C@H]3C(=O)OC)cc12
B. CNC(=O)c1c(-c2ccc(C)cc2)oc2nc(N(CCCC3(C(=O)O)CCN(C(=O)C(C)(C)C)CC3)S(C)(=O)=O)c(C3CC3)cc12
Input line: Choose between A and B : whose measured IC50 value is numerically larger? Kindly state the label of the option you pick.
Output line: A

----------
target: HCV polymerase (Hepatitis C virus genotype 1b); construct: (His)6 (C); test: biochemical; details: polymerase assay of Biological Example 1; read-out: NS5B polymerase IC50
pIC50: −log10 of the molar value.
MEASUREMENT_NAME: pIC50

- CNC(=O)c1c(-c2ccc(F)cc2)oc2nc(N(CCC(C)O)S(C)(=O)=O)c(C3CC3)cc12 (stereo not drawn): 8.00
- CNC(=O)c1c(-c2ccc(F)cc2)oc2nc(N(CCO)S(C)(=O)=O)c(I)cc12: 6.35
- CNC(=O)c1c(-c2ccc(C)cc2)oc2nc(N(CCCCCCC(=O)O)S(C)(=O)=O)c(C3CC3)cc12: 8.15
- CNC(=O)c1c(-c2ccc(C)cc2)oc2nc(N(CCCC3(C(=O)O)CCN(C(C)=O)CC3)S(C)(=O)=O)c(C3CC3)cc12: 8.70
- CNC(=O)c1c(-c2ccc(C)cc2)oc2nc(N(CCOCCC3(C(=O)O)CCOCC3)S(C)(=O)=O)c(C3CC3)cc12: 7.49
- CNC(=O)c1c(-c2ccc(Cl)cc2)oc2nc(N(CCCC(C)(C)C(=O)O)S(C)(=O)=O)c(C3CC3)cc12: 8.70
- CNC(=O)c1c(-c2ccc(C)cc2)oc2nc(N(CCCC(CC(=O)O)OC)S(C)(=O)=O)c(C3CC3)cc12 (stereo not drawn): 8.52
- CNC(=O)c1c(-c2ccc(C)cc2)oc2nc(N(C)S(C)(=O)=O)c(CCCO)cc12: 7.09

1. CCc1cc2c(C(=O)NC)c(-c3ccc(F)cc3)oc2nc1N(CCCNS(C)(=O)=O)S(C)(=O)=O
2. CCc1cc2c(C(=O)NC)c(-c3ccc(F)cc3)oc2nc1N(CCCC(=O)OC)S(C)(=O)=O
3. CNC(=O)c1c(-c2ccc(C(F)(F)F)cc2)oc2nc(N(C)S(C)(=O)=O)c(I)cc12
4. CNC(=O)c1c(-c2ccc(C)cc2)oc2nc(N(CCC[C@H](C)C(=O)O)S(C)(=O)=O)c(C3CC3)cc12
5. C=CCCCN(c1nc2oc(-c3ccc(F)cc3)c(C(=O)NC)c2cc1I)S(C)(=O)=O
Input line: # desc sort on pIC50 across 5 compounds Enter labels, ranked according to the request.
Output line: 4, 2, 1, 5, 3
(4: 8.70, 2: 7.28, 1: 6.90, 5: 6.35, 3: 6.10)

1. C#Cc1cc2c(C(=O)NC)c(-c3ccc(F)cc3)oc2nc1N(C)S(C)(=O)=O
2. CNC(=O)c1c(-c2ccc(F)cc2)oc2nc(N(CCCS(C)(=O)=O)S(C)(=O)=O)c(I)cc12
Input line: Problem: Given the entries 1 and 2 , determine which has the lower reported pIC50. Kindly state the label of the option you pick.
Output line: 2
(2: 6.95, 1: 7.22)
